Molecular target: adenine binding rat receptor (Rattus norvegicus)
Construct: expressed in transfected cells; host or cells: CHO cells, transient, lipofectamine PLUS
Sequence (Q7TN49 whole entry): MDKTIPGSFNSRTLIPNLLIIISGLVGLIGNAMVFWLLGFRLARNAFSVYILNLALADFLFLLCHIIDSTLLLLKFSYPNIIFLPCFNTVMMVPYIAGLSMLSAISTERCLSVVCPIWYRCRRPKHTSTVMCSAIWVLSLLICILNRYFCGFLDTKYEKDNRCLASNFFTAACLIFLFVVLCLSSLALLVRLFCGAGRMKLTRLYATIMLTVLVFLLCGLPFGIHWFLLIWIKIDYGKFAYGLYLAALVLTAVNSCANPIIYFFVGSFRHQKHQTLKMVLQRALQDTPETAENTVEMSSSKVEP
Experiment: [3H]adenine competition binding on CHO membranes transiently transfected
Conditions: transfected cells, 15 nM [3H]adenine, single experiments
pIC50: −log10 of the molar value.

- Compound: "O=c1[nH]cnc2nc[nH]c12 [Hypoxanthine, hypoxanthine]"
  pIC50: "< 4.00"
- Compound: "O=c1ccn([C@@H]2O[C@H](CO)[C@@H](O)[C@H]2O)c(=O)[nH]1 [Uridine, uridine]"
  pIC50: "< 4.00"
- Compound: "Nc1nc2nc[nH]c2c(=O)[nH]1 [Guanine, guanine]"
  pIC50: "< 4.00"
